src = the NIST ThermoML archive (doi:10.1016/j.jct.2014.04.025)

Reported mass density by item:
conditions: 298.15 K; 101.33 kPa; Liquid; Vibrating tube method

{"Molecule": "CCCC[N+]1(C)CCCC1.O=S(=O)([O-])C(F)(F)F [1-butyl-1-methylpyrrolidinium trifluoromethanesulfonate]", "mass density [kg/m3]": 1252.75}
{"Molecule": "CC(C)=O [acetone]", "mass density [kg/m3]": 785.32}
{"Molecule": "c1ccsc1 [thiophene]", "mass density [kg/m3]": 1058.92}
{"Molecule": "CCCC[N+]1(C)CCCC1.N#CC(=C=[N-])C#N [1-butyl-1-methylpyrrolidinium tricyanomethanide]", "mass density [kg/m3]": 1006.91}
{"Molecule": "CCCO [propan-1-ol]", "mass density [kg/m3]": 799.52}
{"Molecule": "CCCCCCC [heptane]", "mass density [kg/m3]": 679.54}
